system: OVCAR-5 ovarian; assay: NCI tumour cell line growth inhibition, 48 h; in the data active means GI50 below about 0.43 µM; inactive means the rest
Answer with one of the outcomes YES (active), NO (inactive)

Lab log entry: O=C(c1ccccc1)c1ccccc1C(=O)c1ccccc1 — outcome as called in the assay? NO

Lab log entry: COc1ccc(S(=O)(=O)n2c3ccccc3n3ncc(-c4nnc(C)o4)c23)cc1 — outcome as called in the assay? NO

Lab log entry: N#CC1CCc2c(c(-c3cn[nH]c3C(F)(F)F)nc3c(F)cc4[nH]ncc4c23)C1 (centres undefined) — outcome as called in the assay? NO

Lab log entry: CC(=O)O[C@H](C[C@H](C(C)C)N(C)C(=O)[C@@H](NC(=O)[C@H]1CCCCN1C)C(C)(C)C)c1nc(C(=O)N[C@@H](Cc2ccccc2)C[C@H](C)C(=O)O)cs1 — outcome as called in the assay? YES

Lab log entry: CN1N=Nc2c(C(F)(F)F)nn(-c3ccccc3)c2N(C)C1=O — outcome as called in the assay? NO

Lab log entry: N#C/C(=C\c1cccnc1)c1nc2ccccc2o1 — outcome as called in the assay? NO

Lab log entry: C=C1C[C@@H]2[C@H](CC[C@]3(C)C(=O)CC[C@@H]23)[C@@]2(C)C=CC(=O)C=C12 — outcome as called in the assay? NO

Lab log entry: O=C(Nc1ccc(-c2ccnc(Nc3ccc(N4CCOCC4)cc3)n2)cc1)C1CCCN1 (centres undefined) — outcome as called in the assay? NO

Lab log entry: O=c1[nH]cnc2nc(-c3ccc(N(CCCl)CCCl)cc3)[nH]c12 — outcome as called in the assay? NO

---

tested on: COLO 205 colon; assay: NCI tumour cell line growth inhibition, 48 h; in the data active means GI50 below about 0.43 µM; inactive means the rest
Answer with one of the outcomes yes (1) for active, no (0) for inactive

Lab log entry: CCC(=O)OC1=CN2C(=NC(c3ccc(N)cc3)=CC2c2cc(OC)c(OC)c(OC)c2)S1 (centres undefined) — outcome as called in the assay? no (0)

Lab log entry: C=C1C[C@@H]2[C@H](CC[C@]3(C)C(=O)CC[C@@H]23)[C@@]2(C)C=CC(=O)C=C12 — outcome as called in the assay? no (0)

Lab log entry: Cc1[nH]n(-c2ccccc2)c(=O)c1C(=O)c1ccccc1 — outcome as called in the assay? no (0)

Lab log entry: Cc1ccc2cnc(N)c(C#Cc3cncc(C(=O)Nc4ccc(CN5CCN(C)CC5)c(C(F)(F)F)c4)c3)c2c1 — outcome as called in the assay? yes (1)

Lab log entry: Cc1nc2sc(C(=O)Nc3cccc(Cl)c3C)c(N)c2cc1C(C)O (centres undefined) — outcome as called in the assay? yes (1)

Lab log entry: COc1cc(/C=C/c2cc(/C=C/c3ccc(O)c(OC)c3)[nH]c(=O)n2)ccc1O — outcome as called in the assay? no (0)

Lab log entry: CC(=O)O[C@H](C[C@H](C(C)C)N(C)C(=O)[C@@H](NC(=O)[C@H]1CCCCN1C)C(C)(C)C)c1nc(C(=O)N[C@@H](Cc2ccccc2)C[C@H](C)C(=O)O)cs1 — outcome as called in the assay? yes (1)

Lab log entry: CCC1OC(/C(C)=C/C(C)/C=C/C2C(C)C2/C=C/C2OC(CC(=O)O)CC(O)C2O)CC=C1C (centres undefined) — outcome as called in the assay? no (0)

Lab log entry: N#Cc1ncc(N2C(=O)C3(CCC3)N(c3ccc(OC4CCNCC4)nc3)C2=S)cc1C(F)(F)F — outcome as called in the assay? no (0)

Each recorded value in this set is attributed to PubChem BioAssay (NCI).
